assayText: Brain and plasma levels 30 minutes after intranasal administration
Assay type: in vivo, rat
details: rat, brain cortex, other: intranasal; intranasal 60 micrograms/32 ul lipid carrier; 30 minutes post-dosing
quantityName: concentration at 30 min (nM)
State just the number; it will be interpreted in nM.

For the compound CC(C)(C)Sc1c(CC(C)(C)C(=O)O)n(Cc2ccc(Cl)cc2)c2ccc(OCc3ccc4ccccc4n3)cc12 , what concentration at 30 min is on record?
200
